Target: T1, human CD38 Fc-fusion aa 45-300 (human, UniProt P28907 45-300)
T1 construct: Expressed in HEK293 behind a human Vkappa leader, which is left out here; also called CD38-Fc fusion protein; CD38 Fc-Fusion protein
Assay: SPR (Biacore), Fab format
measurement_label: Kd (nM)
// note: answer is a bare numeric in nM

Give its Kd value. Item: MOR06184 Fab (Fab, V domains shown, Fab format) VH: QVQLVESGGGLVQPGGSLRLSCAASGFTFSSYYMNWVRQAPGKGLEWVSAISHDGNVKYYADSVKGRFTISRDNSKNTLYLQMNSLRAEDTAVYYCARDLPLVYTGFAYWGQGTLVTVSS VL: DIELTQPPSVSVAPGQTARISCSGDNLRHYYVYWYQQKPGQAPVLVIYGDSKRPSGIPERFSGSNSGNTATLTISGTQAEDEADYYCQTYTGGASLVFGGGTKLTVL
9.68

Data request, read-out Kd, for MOR06186 Fab (Fab, V domains shown, Fab format) VH: QVQLVESGGGLVQPGGSLRLSCAASGFTFSSYYMNWVRQAPGKGLEWVSAINLSGSAKYYADSVKGRFTISRDNSKNTLYLQMNSLRAEDTAVYYCARDLPLVYTGFAYWGQGTLVTVSS VL: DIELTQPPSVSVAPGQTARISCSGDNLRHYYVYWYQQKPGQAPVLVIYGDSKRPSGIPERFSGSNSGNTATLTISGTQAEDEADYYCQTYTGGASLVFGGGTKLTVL
4.62
